Target: T1, Human IL-5 amino acid sequence with his tag (rhIL-5-his) (human, UniProt P05113 20-134)
T1 sequence: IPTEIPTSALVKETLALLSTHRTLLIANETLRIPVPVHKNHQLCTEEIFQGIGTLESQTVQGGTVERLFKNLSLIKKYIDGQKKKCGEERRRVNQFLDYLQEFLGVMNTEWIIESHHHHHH
Assay: cell-based or functional assay
measurement_kind: IC50 of blocking IL-5-induced eosinophil adhesion (µg/mL)

binder	measured
Hu39D10 (antibody, human IgG4 S228P, kappa, V domains shown) VH: EVQLVESGGGLVQPGGSLRLSCAVSGLSLTSNSVNWIRQAPGKGLEWVGLIWSNGDTDYNSAIKSRFTISRDTSKSTVYLQMNSLRAEDTAVYYCAREYYGYFDYWGQGTLVTVSS VL: DIQMTQSPSSLSASVGDRVTITCLASEGISSYLAWYQQKPGKAPKLLIYGANSLQTGVPSRFSGSGSATDYTLTISSLQPEDFATYYCQQSYKFPNTFGQGTKVEVKR	0.0118
